Task for the reader: assign each of the following compounds its reported IC50.
target: HCV NS5B RdRp genotype 1b (Hepatitis C virus genotype 1b, UniProt Q9WMX2); construct: The protein was expressed with an 18 amino acid C-terminal truncation to enhance the solubility; made in house; host or cells: E. coli BL21 (DE3), pET21a; experiment: Modified HCV NS5B RdRp enzyme assay (with preincubation); type: biochemical; details: modified method (with preincubation)
Sequence (Q9WMX2 2420-2992): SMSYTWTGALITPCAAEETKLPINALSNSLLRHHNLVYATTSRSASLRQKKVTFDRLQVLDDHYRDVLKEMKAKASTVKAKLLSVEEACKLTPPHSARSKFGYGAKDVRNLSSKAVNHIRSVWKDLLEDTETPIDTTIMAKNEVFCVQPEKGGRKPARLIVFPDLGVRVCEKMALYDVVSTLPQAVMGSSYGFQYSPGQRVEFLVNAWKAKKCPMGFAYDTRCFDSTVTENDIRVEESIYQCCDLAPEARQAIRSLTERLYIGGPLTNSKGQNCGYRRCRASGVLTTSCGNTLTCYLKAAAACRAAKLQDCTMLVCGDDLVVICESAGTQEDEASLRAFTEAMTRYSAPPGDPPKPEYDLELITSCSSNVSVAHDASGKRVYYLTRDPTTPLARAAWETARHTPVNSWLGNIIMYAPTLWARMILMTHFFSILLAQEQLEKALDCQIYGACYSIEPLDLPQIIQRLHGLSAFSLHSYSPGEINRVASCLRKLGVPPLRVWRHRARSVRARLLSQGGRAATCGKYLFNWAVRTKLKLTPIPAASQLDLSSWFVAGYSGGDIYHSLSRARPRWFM

Some solved entries appear below for comparison.
Compound	Study system	IC50
CN(C)S(=O)(=O)NC(=O)c1ccc2c(C3CCCCC3)c3n(c2c1)C[C@@H](O)[C@@H](O)c1ncccc1-3	HCV NS5B RdRp genotype 1b (Hepatitis C virus genotype 1b, UniProt Q9WMX2)	20 to 1000 nM
COC(=O)c1ccc2c(C3CCCCC3)c3n(c2c1)CC(C(=O)N1CCOCC1)Cc1ccncc1-3 (centres unmarked)	HCV NS5B RdRp genotype 1b (Hepatitis C virus genotype 1b, UniProt Q9WMX2)	> 1000 nM
CC(C)(C)OC(=O)N1C/C=C\Cn2c(c(C3CCCCC3)c3ccc(C(=O)O)cc32)-c2cnccc21	HCV NS5B RdRp genotype 1b (Hepatitis C virus genotype 1b, UniProt Q9WMX2)	> 1000 nM

Quick one: give me IC50 for each item below, same order please.
1. Cn1c(C(=O)O)cc2cc(NC(=O)C3(NC(=O)c4ccc5c(C6CCCCC6)c6n(c5c4)CC(=O)Nc4ccccc4-6)CCCC3)ccc21
2. NC(=O)C1Cc2ccccc2-c2c(C3CCCCC3)c3ccc(C(=O)NC4(C(=O)Nc5ccc(/C=C/C(=O)O)cc5)CCCC4)cc3n2C1 (centres unmarked)
3. O=C1Cn2c(c(C3CCCCC3)c3ccc(C(=O)NS(=O)(=O)N4CCN(c5ccccc5)CC4)cc32)-c2ccccc2N1
4. O=C(O)c1ccc2c(C3CCCCC3)c3n(c2c1)CC(CO)Cc1ccccc1-3 (centres unmarked)
5. CS(=O)(=O)NC(=O)c1ccc2c(C3CCCCC3)c3n(c2c1)CC(C(=O)N1CCOCC1)Cc1ccccc1-3 (centres unmarked) [drawing 303]

[reply]
1: 20 to 1000 nM; 2: 20 to 1000 nM; 3: 20 to 1000 nM; 4: 20 to 1000 nM; 5: 20 to 1000 nM
